Item-by-item account of Th-T fluorescence, mean of three wells (Fig. 7a)
assay_system: Aβ42 (Homo sapiens, UniProt P05067)
Sequence (P05067 672-713): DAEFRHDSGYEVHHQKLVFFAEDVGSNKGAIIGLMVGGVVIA
assay_comment: Th-T (thioflavin-T) assay of Aβ42 aggregation
Type: biochemical
reported_conditions: reading M116; compound at 50 (head suffix _50)
No unit in the answer, only the number.

[
  {
    "molecule": "C=C1CCC2C(C)(CCC=C(C)C)C(O)CCC2(C)C1Cc1c(OC)oc(CO)c(C(=O)OC)c1=O (centres unmarked) [Compound 13]",
    "assay_system": "Aβ42 (Homo sapiens, UniProt P05067)",
    "numeric_value": 0.4778
  },
  {
    "molecule": "C=C1CC[C@@H]2[C@](C)(CC[C@H]3O[C@H](C=C(C)C)C[C@@]23C)[C@@H]1Cc1c(OC)oc(CO)c(C(=O)OC)c1=O [Compound 21]",
    "assay_system": "Aβ42 (Homo sapiens, UniProt P05067)",
    "numeric_value": 0.4913
  },
  {
    "molecule": "C=C1CC[C@@H]2[C@](C)(CC[C@H]3O[C@H](C=C(C)C)C[C@@]23C)[C@@H]1Cc1c(OC)oc(CO)c(C)c1=O [Compound 20]",
    "assay_system": "Aβ42 (Homo sapiens, UniProt P05067)",
    "numeric_value": 2.109
  },
  {
    "molecule": "C=C1CCC2C(C)(CCC=C(C)C)C(O)CCC2(C)C1Cc1c(OC)oc(C)c(C(=O)OC)c1=O (centres unmarked) [Compound 14]",
    "assay_system": "Aβ42 (Homo sapiens, UniProt P05067)",
    "numeric_value": 1.094
  }
]

Now for another entry.
Return Th-T fluorescence, mean of three wells (Fig. 7a) (reported value) for this molecule: C=C1CCC2C(C)(CCC=C(C)C)C(O)CCC2(C)C1Cc1c(OC)oc(CO)c(C)c1=O (centres unmarked) [Compound 12]
1.496

###

assay_system: Aβ42 (Homo sapiens, UniProt P05067)
assay_comment: Th-T (thioflavin-T) assay of Aβ42 aggregation
Type: biochemical
reported_conditions: column suffix _50; reading M104
recorded_endpoint: Fig. 7a Th-T reading, mean of three wells
No unit in the answer, only the number.

[
  {
    "compound": "C=C1CC[C@@H]2[C@](C)(CC[C@H]3O[C@H](C=C(C)C)C[C@@]23C)[C@@H]1Cc1c(OC)oc(CO)c(C(=O)OC)c1=O [Compound 21]",
    "numeric_value": 0.4757
  },
  {
    "compound": "C=C1CCC2C(C)(CCC=C(C)C)C(O)CCC2(C)C1Cc1c(OC)oc(CO)c(C(=O)OC)c1=O (centres unmarked) [Compound 13]",
    "numeric_value": 0.4762
  },
  {
    "compound": "C=C1CCC2C(C)(CCC=C(C)C)C(O)CCC2(C)C1Cc1c(OC)oc(CO)c(C)c1=O (centres unmarked) [Compound 12]",
    "numeric_value": 1.419
  },
  {
    "compound": "C=C1CCC2C(C)(CCC=C(C)C)C(O)CCC2(C)C1Cc1c(OC)oc(C)c(C(=O)OC)c1=O (centres unmarked) [Compound 14]",
    "numeric_value": 1.353
  }
]

Now for another entry.
Supply Fig. 7a Th-T reading, mean of three wells measured with Aβ42 (Homo sapiens, UniProt P05067) for C=C1CC[C@@H]2[C@](C)(CC[C@H]3O[C@H](C=C(C)C)C[C@@]23C)[C@@H]1Cc1c(OC)oc(CO)c(C)c1=O [Compound 20] .
2.099

###

assay_system: UniProt:P05067
assay_comment: Th-T (thioflavin-T) assay of Aβ42 aggregation
Format: biochemical
reported_conditions: time-course reading M109; Supplementary Fig. 47 source data
recorded_endpoint: Th-T fluorescence, mean of three wells
No unit in the answer, only the number.

[
  {
    "compound": "C=C1CCC2C(C)(CCC=C(C)C)C(O)CCC2(C)C1Cc1c(OC)oc(C)c(C)c1=O (stereo not shown) [Compound 11]",
    "assay_system": "UniProt:P05067",
    "Th-T fluorescence, mean of three wells": 3.5
  }
]

Supply Th-T fluorescence, mean of three wells measured with UniProt:P05067 for C=C1CCC2C(C)(CCC=C(C)C)C(O)CCC2(C)C1Cc1c(O)c(C)c(C)oc1=O (stereo not shown) [Compound 9, higginsianin B] .
2.783

Supply Th-T fluorescence, mean of three wells measured with UniProt:P05067 for CC(C)=CCC/C(C)=C/CC/C(C)=C/CC/C(C)=C/Cc1c(O)c(C)c(C)oc1=O [Compound 2] .
2.942

Supply Th-T fluorescence, mean of three wells measured with UniProt:P05067 for C=C1CCC2C(C)(CC(=O)C=C(C)C)C(O)CCC2(C)C1Cc1c(OC)oc(C)c(C)c1=O (stereo not shown) [Compound 25] .
3.632

Supply Th-T fluorescence, mean of three wells measured with UniProt:P05067 for C=C1CC[C@H]2[C@]3(C)C[C@@H](C=C(C)C)O[C@H]3CC[C@]2(C)[C@@H]1Cc1c(OC)oc(CO)c(C)c1=O [Compound 17] .
3.713

Supply Th-T fluorescence, mean of three wells measured with UniProt:P05067 for C=C1CCC2C3(C)CC(C=C(C)C)OC3CCC2(C)C1Cc1c(OC)oc(C)c(C)c1=O (stereo not shown) [Compound 23] .
3.882

Supply Th-T fluorescence, mean of three wells measured with UniProt:P05067 for C=C1CC[C@@H]2[C@](C)(CC[C@H]3O[C@H](C=C(C)C)C[C@@]23C)[C@@H]1Cc1c(O)c(C)c(C)oc1=O [Compound 10, higginsianin A] .
3.032

###

Item-by-item account of Th-T fluorescence, mean of three wells (Fig. 7a)
assay_system: Aβ42 (Homo sapiens, UniProt P05067)
assay_comment: Th-T (thioflavin-T) assay of Aβ42 aggregation
Type: biochemical
reported_conditions: reading M112; compound at 10 (head suffix _10)
No unit in the answer, only the number.

Here are 4 compounds together with their reported answers.
[
  {
    "compound": "C=C1CC[C@@H]2[C@](C)(CC[C@H]3O[C@H](C=C(C)C)C[C@@]23C)[C@@H]1Cc1c(OC)oc(CO)c(C(=O)OC)c1=O",
    "numeric_value": 1.658
  },
  {
    "compound": "C=C1CCC2C(C)(CCC=C(C)C)C(O)CCC2(C)C1Cc1c(OC)oc(CO)c(C(=O)OC)c1=O (centres unmarked)",
    "numeric_value": 1.549
  },
  {
    "compound": "C=C1CCC2C(C)(CCC=C(C)C)C(O)CCC2(C)C1Cc1c(OC)oc(CO)c(C)c1=O (centres unmarked)",
    "numeric_value": 2.674
  },
  {
    "compound": "C=C1CCC2C(C)(CCC=C(C)C)C(O)CCC2(C)C1Cc1c(OC)oc(C)c(C(=O)OC)c1=O (centres unmarked)",
    "numeric_value": 2.867
  }
]

Now for another entry.
Return Th-T fluorescence, mean of three wells (Fig. 7a) (reported value) for this compound: `C=C1CC[C@@H]2[C@](C)(CC[C@H]3O[C@H](C=C(C)C)C[C@@]23C)[C@@H]1Cc1c(OC)oc(CO)c(C)c1=O`
3.256

###

assay_system: Aβ42 (Homo sapiens)
assay_comment: Th-T (thioflavin-T) assay of Aβ42 aggregation
Format: biochemical
reported_conditions: Supplementary Fig. 47 source data; measurement M51 of time course
recorded_endpoint: Th-T fluorescence, mean of three wells
No unit in the answer, only the number.

Here are 5 compounds together with their reported answers.
[
  {
    "compound": "C=C1CC[C@H]2[C@]3(C)C[C@H](C=C(C)C)O[C@H]3CC[C@]2(C)[C@@H]1Cc1c(OC)oc(CO)c(C)c1=O [Compound 18]",
    "Th-T fluorescence, mean of three wells": 3.932
  },
  {
    "compound": "C=C1CCC2C3(C)CC(C=C(C)C)OC3CCC2(C)C1Cc1c(OC)oc(C)c(C)c1=O (stereo not shown) [Compound 23]",
    "Th-T fluorescence, mean of three wells": 4.006
  },
  {
    "compound": "C=C1CC[C@H]2[C@]3(C)C[C@@H](C=C(C)C)O[C@H]3CC[C@]2(C)[C@@H]1Cc1c(OC)oc(CO)c(C)c1=O [Compound 17]",
    "Th-T fluorescence, mean of three wells": 3.557
  },
  {
    "compound": "C=C1CCC2C(C)(CCC=C(C)C)C(=O)CCC2(C)C1Cc1c(O)c(C)c(C)oc1=O (stereo not shown) [Compound 8]",
    "Th-T fluorescence, mean of three wells": 2.215
  },
  {
    "compound": "C=C1CCC2C(C)(CC(=O)C=C(C)C)C(O)CCC2(C)C1Cc1c(OC)oc(C)c(C)c1=O (stereo not shown) [Compound 25]",
    "Th-T fluorescence, mean of three wells": 3.755
  }
]

Supply Th-T fluorescence, mean of three wells measured with Aβ42 (Homo sapiens) for C=C1CCC2C(C)(CC(=O)C=C(C)C)C(O)CCC2(C)C1Cc1c(O)c(C)c(C)oc1=O (stereo not shown) [Compound 7] .
3.626

Supply Th-T fluorescence, mean of three wells measured with Aβ42 (Homo sapiens) for C=C1CC[C@H]2[C@]3(C)C[C@H](C=C(C)C)O[C@H]3CC[C@]2(C)[C@@H]1Cc1c(O)c(C)c(C)oc1=O [Compound 6, subglutinol B] .
3.119
